Test system: Acinetobacter baumannii
Assay: Antimicrobial activity against imipenem and meropenem-resistant Acinetobacter baumannii isolate NJ59 by CLSI agar dilution method
Type: functional
RECORDED METRIC: MIC (µg/mL)
The answer is to be given in µg/mL; state only the numeric part.

Guide cases for MIC, answers given:
COMPOUND	MIC, µg/mL
CN(C)c1ccc(O)c2c1C[C@H]1C[C@H]3[C@H](N(C)C)C(O)=C(C(N)=O)C(=O)[C@@]3(O)C(O)=C1C2=O	4
C[C@@H](O)[C@H]1C(=O)N2C(C(=O)O)=C(S[C@@H]3CN[C@H](C(=O)N(C)C)C3)[C@H](C)[C@H]12	16
CO[C@H]1/C=C/O[C@@]2(C)Oc3c(C)c(O)c4c(O)c(c(/C=N/N5CCN(C)CC5)c(O)c4c3C2=O)NC(=O)/C(C)=C\C=C\[C@H](C)[C@H](O)[C@@H](C)[C@@H](O)[C@@H](C)[C@H](OC(C)=O)[C@@H]1C	8

State MIC on Acinetobacter baumannii. Entry: C[C@@H](O)[C@H]1C(=O)N2C(C(=O)O)=C(SCCNC=N)C[C@H]12 [IMIPENEM ANHYDROUS] 16

====

Test system: Acinetobacter baumannii
Experiment: Antimicrobial activity against imipenem and meropenem-resistant Acinetobacter baumannii isolate PUA1 by CLSI agar dilution method
Type: functional
RECORDED METRIC: log10 of MIC (log10 of the value in mg/L)
Hey, these are logged values: log10 of MIC, mg/L being the unit before logging.

Guide cases for log10 of MIC, answers given:
COMPOUND	log10 of MIC
NCC[C@H](O)C(=O)N[C@@H]1C[C@H](N)[C@@H](O[C@H]2O[C@H](CN)[C@@H](O)[C@H](O)[C@H]2O)[C@H](O)[C@H]1O[C@H]1O[C@H](CO)[C@@H](O)[C@H](N)[C@H]1O [AMIKACIN]	0.90
C[C@@H](O)[C@H]1C(=O)N2C(C(=O)O)=C(SCCNC=N)C[C@H]12 [IMIPENEM ANHYDROUS]	1.81
C[C@H]1COc2c(N3CCN(C)CC3)c(F)cc3c(=O)c(C(=O)O)cn1c23.C[C@H]1COc2c(N3CCN(C)CC3)c(F)cc3c(=O)c(C(=O)O)cn1c23.O [LEVOFLOXACIN]	1.20
CO[C@H]1/C=C/O[C@@]2(C)Oc3c(C)c(O)c4c(O)c(c(/C=N/N5CCN(C)CC5)c(O)c4c3C2=O)NC(=O)/C(C)=C\C=C\[C@H](C)[C@H](O)[C@@H](C)[C@@H](O)[C@@H](C)[C@H](OC(C)=O)[C@@H]1C [RIFAMPIN]	1.51
C[C@@H](O)[C@H]1C(=O)N2C(C(=O)O)=C(S[C@@H]3CN[C@H](C(=O)N(C)C)C3)[C@H](C)[C@H]12 [MEROPENEM]	1.81

Query log10 of MIC for CN(C)c1ccc(O)c2c1C[C@H]1C[C@H]3[C@H](N(C)C)C(O)=C(C(N)=O)C(=O)[C@@]3(O)C(O)=C1C2=O [MINOCYCLINE] 0.60

====

System: Acinetobacter baumannii
Test: Antimicrobial activity against imipenem and meropenem-resistant Acinetobacter baumannii isolate BJ3-23 by CLSI agar dilution method
Type: functional
RECORDED METRIC: MIC (µg/mL)
The answer is to be given in µg/mL; state only the numeric part.

COMPOUND	UNITS LABEL	MIC
CN(C)c1ccc(O)c2c1C[C@H]1C[C@H]3[C@H](N(C)C)C(O)=C(C(N)=O)C(=O)[C@@]3(O)C(O)=C1C2=O	µg/mL	8
C[C@@H](O)[C@H]1C(=O)N2C(C(=O)O)=C(SCCNC=N)C[C@H]12 [IMIPENEM ANHYDROUS]	µg/mL	64
CO[C@H]1/C=C/O[C@@]2(C)Oc3c(C)c(O)c4c(O)c(c(/C=N/N5CCN(C)CC5)c(O)c4c3C2=O)NC(=O)/C(C)=C\C=C\[C@H](C)[C@H](O)[C@@H](C)[C@@H](O)[C@@H](C)[C@H](OC(C)=O)[C@@H]1C	µg/mL	8
C[C@H]1COc2c(N3CCN(C)CC3)c(F)cc3c(=O)c(C(=O)O)cn1c23.C[C@H]1COc2c(N3CCN(C)CC3)c(F)cc3c(=O)c(C(=O)O)cn1c23.O	µg/mL	4

Query MIC for `C[C@@H](O)[C@H]1C(=O)N2C(C(=O)O)=C(S[C@@H]3CN[C@H](C(=O)N(C)C)C3)[C@H](C)[C@H]12` 64
